The measured values listed here are drawn from patent US20100093028A1.

target system: T1, vascular endothelial growth factor (UniProt P15692-4 27-191, limits assumed, biotin label (Example 5), site not stated)
T1 construct: also called VEGF; VegF
T1 sequence (P15692 other isoform, or with tags, fused parts or gaps limits assumed): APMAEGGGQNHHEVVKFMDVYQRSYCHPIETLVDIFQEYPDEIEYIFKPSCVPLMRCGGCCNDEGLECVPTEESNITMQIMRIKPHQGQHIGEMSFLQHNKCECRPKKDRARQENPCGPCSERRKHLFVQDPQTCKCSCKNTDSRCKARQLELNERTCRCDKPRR
assay: BioVeris ECL competition; wild-type negative control for VEGF binding
endpoint name: IC50

[[record]]
binder = "wild-type soybean Bowman-Birk protease inhibitor (other, Negative control with the native chymotrypsin loop ALSYPAQ; also called sBBI; BBI) DDESSKPCCDQCACTKSNPPQCRCSDMRLNSCHSACKSCICALSYPAQCFCVDITDFCYEPCKPSEDDKEN"
reported_value = "> 250 µM"

